For each of the molecules below, state its Gal9 response compared to reference.
- Test system: mCherry-GAL9 expressing 16HBE cells
- assayProcedure: GAL9 recruitment assay, 16HBE
- Type: cell-based
- conditionsUsed: EEE 1.25 µM, calculated mean from >3 independent exp.

Enter measured Gal9 response compared to reference, system mCherry-GAL9 expressing 16HBE cells, for the molecule shown: CCCN1CCC(n2cc(Nc3ncc(F)c(-n4ccc5c(C#N)cccc54)n3)c(OC)n2)CC1
0.028

Consider the molecule COc1nn(C2CCN(C)CC2)cc1Nc1ncc(F)c(-n2ccc3c(C#N)cccc32)n1 tested on mCherry-GAL9 expressing 16HBE cells; state its Gal9 response compared to reference.
0.180

Enter measured Gal9 response compared to reference, system mCherry-GAL9 expressing 16HBE cells, for the molecule shown: COc1nn(C2CCN(CCCO)CC2)cc1Nc1ncc(F)c(-n2ccc3c(C#N)cccc32)n1
0.180

Give Gal9 response compared to reference for this entry on mCherry-GAL9 expressing 16HBE cells: COc1nn(C2CCN(C)CC2)cc1Nc1ncc(Cl)c(-n2ccc3c(C#N)cccc32)n1
0.008

Please indicate recorded Gal9 response compared to reference of CCOc1nn(C2CCN(C)CC2)cc1Nc1ncc(C(F)(F)F)c(-c2c[nH]c3ccccc23)n1 measured with mCherry-GAL9 expressing 16HBE cells.
0.007

---

Record form. Attribute: Gal9 response compared to reference. Fill in for each entry.
- System: mCherry-GAL9 expressing U2OS cells
- assayProcedure: GAL9 recruitment assay, U2OS
- Assay type: cell-based
- conditionsUsed: EEE 10 µM, calculated mean from >3 independent exp.
Kindly provide the number alone.

Identify measured Gal9 response compared to reference associated with COc1nn(C2CCN(C(C)C)CC2)cc1Nc1ncc(F)c(-n2ccc3c(C#N)cccc32)n1
0.502

Could you please provide reported Gal9 response compared to reference for COc1nn(C2CCN(C)CC2)cc1Nc1ncc(C(F)(F)F)c(-n2ccc3c(C#N)cccc32)n1 ? Thanks!
0.024

Please list Gal9 response compared to reference recorded for the compound COc1nn(C2CCN(C)CC2)cc1Nc1ncc(F)c(-n2ccc3ccc(C#N)cc32)n1
0.232

Provide Gal9 response compared to reference value for the following compound: COc1nn(C2CCN(C)CC2)cc1Nc1ncc(Cl)c(-n2ccc3c(C#N)cccc32)n1
0.155

Name the recorded Gal9 response compared to reference of the item COc1nn(C2CCN(CCCO)CC2)cc1Nc1ncc(F)c(-n2ccc3c(C#N)cccc32)n1 in your answer.
0.588

Specify reported Gal9 response compared to reference for the compound shown: CCOc1nn(C2CCN(C)CC2)cc1Nc1ncc(F)c(-n2ccc3c(C#N)cccc32)n1
0.072

Please list Gal9 response compared to reference recorded for the compound CCN1CCC(n2cc(Nc3ncc(F)c(-n4ccc5c(C#N)cccc54)n3)c(OC)n2)CC1
0.483

Report Gal9 response compared to reference for COc1nn(C2CCNCC2)cc1Nc1ncc(F)c(-c2c[nH]c3ccccc23)n1
0.017

Recall and state the measured Gal9 response compared to reference for COc1nn(C2CCNCC2)cc1Nc1ncc(C(F)(F)F)c(-c2c[nH]c3ccccc23)n1 .
0.166

---

- System: mCherry-GAL9 expressing HEK293 cells
- assayProcedure: GAL9 recruitment assay, HEK293
- Assay type: cell-based
- conditionsUsed: EEE 1.25 µM, calculated mean from >3 independent exp.
quantity: Gal9 response compared to reference

In one line, give reported Gal9 response compared to reference of the entry COc1nn(C2CCN(C)CC2)cc1Nc1ncc(Cl)c(-n2ccc3c(C#N)cccc32)n1 [EEE17] .
0.019

Please report Gal9 response compared to reference for the following compound: CCCN1CCC(n2cc(Nc3ncc(F)c(-n4ccc5c(C#N)cccc54)n3)c(OC)n2)CC1 [EEE10]
0.051

Give a short answer stating reported Gal9 response compared to reference for COc1nn(C2CCN(C)CC2)cc1Nc1ncc(C(F)(F)F)c(-n2ccc3c(C#N)cccc32)n1 [EEE16] .
0.019

Please give measured Gal9 response compared to reference of the following entry: COc1nn(C2CCN(CCCO)CC2)cc1Nc1ncc(F)c(-n2ccc3c(C#N)cccc32)n1 [EEE12]
0.432

Specify Gal9 response compared to reference for CCOc1nn(C2CCN(C)CC2)cc1Nc1ncc(F)c(-n2ccc3c(C#N)cccc32)n1 [EEE13] and stop.
0.021

Tell me its Gal9 response compared to reference given COc1nn(C2CCN(C(C)C)CC2)cc1Nc1ncc(F)c(-n2ccc3c(C#N)cccc32)n1 [EEE9] as the entry.
0.071

State its Gal9 response compared to reference for this compound: COc1nn(C2CCNCC2)cc1Nc1ncc(F)c(-c2c[nH]c3ccccc23)n1 [EEE23]
0.015

Return Gal9 response compared to reference (reported value) for this compound: CCN1CCC(n2cc(Nc3ncc(F)c(-n4ccc5c(C#N)cccc54)n3)c(OC)n2)CC1 [EEE11]
0.106

Look up and state reported Gal9 response compared to reference for COc1nn(C2CCN(C)CC2)cc1Nc1ncc(F)c(-n2ccc3c(C#N)cccc32)n1 [EEE8]
0.309

---

- System: mCherry-GAL9 expressing HepG2 cells
- assayProcedure: GAL9 recruitment assay, HepG2
- Format: cell-based
- conditionsUsed: EEE 0.31 µM, calculated mean from >3 independent exp.
quantity: Gal9 response compared to reference
Output: the number by itself.

Note Gal9 response compared to reference for the molecule shown: COc1nn(C2CCNCC2)cc1Nc1ncc(F)c(-c2c[nH]c3ccccc23)n1 [EEE23]
0.006

Determine from records and report Gal9 response compared to reference for CCN1CCC(n2cc(Nc3ncc(F)c(-n4ccc5c(C#N)cccc54)n3)c(OC)n2)CC1 [EEE11]
0.009

Look up and state reported Gal9 response compared to reference for COc1nn(C2CCN(CCCO)CC2)cc1Nc1ncc(F)c(-n2ccc3c(C#N)cccc32)n1 [EEE12]
0.008

Could you please provide reported Gal9 response compared to reference for COc1nn(C2CCN(C(C)C)CC2)cc1Nc1ncc(F)c(-n2ccc3c(C#N)cccc32)n1 [EEE9] ? Thanks!
0.009

Output measured Gal9 response compared to reference for this item: COc1nn(C2CCN(C)CC2)cc1Nc1ncc(C(F)(F)F)c(-n2ccc3c(C#N)cccc32)n1 [EEE16]
0.010

---

- System: mCherry-GAL9 expressing HuH7 cells
- assayProcedure: GAL9 recruitment assay, HuH7
- Assay type: cell-based
- conditionsUsed: EEE 5 µM, calculated mean from >3 independent exp.
Classification field: enter satisfied for Gal9 response compared to reference values not below 0.05, not satisfied for values below it.

Reported Gal9 response compared to reference reaches at least 0.05 for COc1nn(C2CCN(C)CC2)cc1Nc1ncc(F)c(-n2ccc3c(C#N)cccc32)n1 ?
satisfied

Say whether COc1nn(C2CCN(CCCO)CC2)cc1Nc1ncc(F)c(-n2ccc3c(C#N)cccc32)n1 shows Gal9 response compared to reference of 0.05 or more.
satisfied

In plain terms: is recorded Gal9 response compared to reference at least 0.05 for COc1nn(C2CCN(C)CC2)cc1Nc1ncc(F)c(-n2ccc3ccc(C#N)cc32)n1 ?
not satisfied

Can COc1nn(C2CCNCC2)cc1Nc1ncc(F)c(-n2ccc3c(C#N)cccc32)n1 be said to have Gal9 response compared to reference at or above 0.05?
satisfied

For this molecule, is measured Gal9 response compared to reference 0.05 or higher? COc1nn(C2CCN(C(C)C)CC2)cc1Nc1ncc(F)c(-n2ccc3c(C#N)cccc32)n1
satisfied

Does CCOc1nn(C2CCN(C)CC2)cc1Nc1ncc(C(F)(F)F)c(-c2c[nH]c3ccccc23)n1 have a reported Gal9 response compared to reference of at least 0.05?
not satisfied

Please check the record COc1nn(C2CCN(C)CC2)cc1Nc1ncc(C(F)(F)F)c(-n2ccc3c(C#N)cccc32)n1 and state if its Gal9 response compared to reference is at or above 0.05.
not satisfied

Hi team, for COc1nn(C2CCNCC2)cc1Nc1ncc(C(F)(F)F)c(-c2c[nH]c3ccccc23)n1 , is the recorded Gal9 response compared to reference at or above 0.05?
not satisfied

Does the reported Gal9 response compared to reference for COc1nn(C2CCNCC2)cc1Nc1ncc(F)c(-c2c[nH]c3ccccc23)n1 fall at or above the 0.05 mark?
not satisfied

Tell me whether Gal9 response compared to reference is at least 0.05 here: CCCN1CCC(n2cc(Nc3ncc(F)c(-n4ccc5c(C#N)cccc54)n3)c(OC)n2)CC1
satisfied

Is reported Gal9 response compared to reference greater than or equal to 0.05 here: COc1nn(C2CCN(C)CC2)cc1Nc1ncc(Cl)c(-n2ccc3c(C#N)cccc32)n1
not satisfied

Hi, just wondering whether CCOc1nn(C2CCN(C)CC2)cc1Nc1ncc(F)c(-n2ccc3c(C#N)cccc32)n1 shows Gal9 response compared to reference of 0.05 or higher.
not satisfied

Could you verify whether the entry CCN1CCC(n2cc(Nc3ncc(F)c(-n4ccc5c(C#N)cccc54)n3)c(OC)n2)CC1 shows Gal9 response compared to reference of no less than 0.05?
satisfied
